PROTOCOL SUMMARY: pI (analytical data, Table 2)
Format: physicochemical
MEASURE NAME: pI
Output: the number by itself.

Solved cases (2 shown):
- CNC1C(=O)NC2C(=O)NC(C(=O)NC3C(=O)NC4C(=O)NC(C(=O)NC(C(=O)NCCCCCCN)c5cc(O)cc(O)c5-c5cc4ccc5O)C(O)c4cc(Cl)c(c(Cl)c4)Oc4cc3cc(c4O)Oc3ccc(cc3Cl)C2O)c2cc(cc(O)c2Cl)Oc2cc1ccc2O (stereo not drawn) [Compound 2h, Ardacin aglycone-(6-aminohexyl amide)]: 7.7
- CCCCCCCCCC(=O)NC1C(Oc2c3cc4cc2Oc2c(Cl)cc(cc2Cl)C(O)C2NC(=O)C(NC(=O)C4NC(=O)C4NC(=O)C(NC(=O)C(NC)c5ccc(O)c(c5)Oc5cc(O)c(Cl)c4c5)C(O)c4ccc(c(Cl)c4)O3)c3ccc(O)c(c3)-c3c(OC4OC(CO)C(O)C(O)C4O)cc(O)cc3C(C(=O)NCCO)NC2=O)OC(C(=O)NCCO)C(O)C1O (stereo not drawn) [Compound 2l, Ardacin A-di-(2-hydroxyethyl amide)]: 7.3

The molecule identified as CCCCCCCCCC(=O)NC1C(Oc2c3cc4cc2Oc2c(Cl)cc(cc2Cl)C(O)C2NC(=O)C(NC(=O)C4NC(=O)C4NC(=O)C(NC(=O)C(NC)c5ccc(O)c(c5)Oc5cc(O)c(Cl)c4c5)C(O)c4ccc(c(Cl)c4)O3)c3ccc(O)c(c3)-c3c(OC4OC(CO)C(O)C(O)C4O)cc(O)cc3C(C(=O)NN)NC2=O)OC(C(=O)NN)C(O)C1O (stereo not drawn) [Compound 2k, Ardacin A dihydrazide] registered its pI at 7.0

The molecule identified as CNC1C(=O)NC2C(=O)NC(C(=O)NC3C(=O)NC4C(=O)NC(C(=O)NC(C(N)=O)c5cc(O)cc(O)c5-c5cc4ccc5O)C(O)c4cc(Cl)c(c(Cl)c4)Oc4cc3cc(c4O)Oc3ccc(cc3Cl)C2O)c2cc(cc(O)c2Cl)Oc2cc1ccc2O (stereo not drawn) [Compound 2c, Ardacin aglycone amide] registered its pI at 7.1

The molecule identified as CNC1C(=O)NC2C(=O)NC(C(=O)NC3C(=O)NC4C(=O)NC(C(=O)NC(C(=O)NCCO)c5cc(O)cc(O)c5-c5cc4ccc5O)C(O)c4cc(Cl)c(c(Cl)c4)Oc4cc3cc(c4O)Oc3ccc(cc3Cl)C2O)c2cc(cc(O)c2Cl)Oc2cc1ccc2O (stereo not drawn) [Compound 2d, Ardacin aglycone-(2-hydroxyethyl amide)] registered its pI at 7.1

The molecule identified as CCCCCCCCCC(=O)NC1C(Oc2c3cc4cc2Oc2c(Cl)cc(cc2Cl)C(O)C2NC(=O)C(NC(=O)C4NC(=O)C4NC(=O)C(NC(=O)C(NC)c5ccc(O)c(c5)Oc5cc(O)c(Cl)c4c5)C(O)c4ccc(c(Cl)c4)O3)c3ccc(O)c(c3)-c3c(OC4OC(CO)C(O)C(O)C4O)cc(O)cc3C(C(=O)NCCN)NC2=O)OC(C(=O)NCCN)C(O)C1O (stereo not drawn) [Compound 2m, Ardacin A-di-(2-aminoethylamide)] registered its pI at 8.4

* * *

Test system: Staphylococcus epidermidis
PROTOCOL SUMMARY: standard microtiter assay, minimum inhibitory concentration
Assay type: cell-based
ASSAY CONDITIONS: Test Organism 6, strain of Staphylococcus epidermidis
MEASURE NAME: minimum inhibitory concentration of antibiotic, Test Organism 6 (µg/mL)
Just the number please, in µg/mL, no unit attached.

Solved cases (2 shown):
• CCCCCCCCCC(=O)NC1C(Oc2c3cc4cc2Oc2c(Cl)cc(cc2Cl)C(O)C2NC(=O)C(NC(=O)C4NC(=O)C4NC(=O)C(NC(=O)C(NC)c5ccc(O)c(c5)Oc5cc(O)c(Cl)c4c5)C(O)c4ccc(c(Cl)c4)O3)c3ccc(O)c(c3)-c3c(OC4OC(CO)C(O)C(O)C4O)cc(O)cc3C(C(N)=O)NC2=O)OC(C(N)=O)C(O)C1O (stereo not drawn) [Compound 2j, Ardacin A diamide] = 6300
• CNC1C(=O)NC2C(=O)NC(C(=O)NC3C(=O)NC4C(=O)NC(C(=O)NC(C(N)=O)c5cc(O)cc(OC6OC(CO)C(O)C(O)C6O)c5-c5cc4ccc5O)C(O)c4ccc(c(Cl)c4)Oc4cc3cc(c4OC3OC(C(N)=O)C(O)C(O)C3NC(=O)CCCCCCCCC(C)C)Oc3ccc(cc3)C2O)c2cc(cc(O)c2Cl)Oc2cc1ccc2O (stereo not drawn) [Compound 2q, AAJ-271 C1 diamide] = 12500

Then this compound:
Value sought: minimum inhibitory concentration of antibiotic, Test Organism 6, system Staphylococcus epidermidis, item CNC1C(=O)NC2C(=O)NC(C(=O)NC3C(=O)NC4C(=O)NC(C(=O)NC(C(=O)O)c5cc(O)cc(OC6OC(CO)C(O)C(O)C6O)c5-c5cc4ccc5O)C(O)c4ccc(c(Cl)c4)Oc4cc3cc(c4OC3OC(C(=O)O)C(O)C(O)C3NC(=O)CCCCCCCCC(C)C)Oc3ccc(cc3)C2O)c2cc(cc(O)c2Cl)Oc2cc1ccc2O (stereo not drawn) [Compound 2p, AAJ-271 C1, reference compound] . Result: 6300

* * *

System: Staphylococcus epidermidis
PROTOCOL SUMMARY: standard microtiter assay, minimum inhibitory concentration
Assay type: cell-based
ASSAY CONDITIONS: Test Organism 6, strain of Staphylococcus epidermidis
MEASURE NAME: minimum inhibitory concentration of antibiotic, Test Organism 6 (µg/mL)
Just the number please, in µg/mL, no unit attached.

* CNC1C(=O)NC2C(=O)NC(C(=O)NC3C(=O)NC4C(=O)NC(C(=O)NC(C(=O)O)c5cc(O)cc(O)c5-c5cc4ccc5O)C(O)c4cc(Cl)c(c(Cl)c4)Oc4cc3cc(c4O)Oc3ccc(cc3Cl)C2O)c2cc(cc(O)c2Cl)Oc2cc1ccc2O (stereo not shown) [Compound 2a, Ardacin aglycone, reference compound] | 800
* CNC1C(=O)NC2C(=O)NC(C(=O)NC3C(=O)NC4C(=O)NC(C(=O)NC(C(=O)O)c5cc(O)cc(OC6OC(CO)C(O)C(O)C6O)c5-c5cc4ccc5O)C(O)c4cc(Cl)c(c(Cl)c4)Oc4cc3cc(c4O)Oc3ccc(cc3Cl)C2O)c2cc(cc(O)c2Cl)Oc2cc1ccc2O (stereo not shown) [Compound 2b, Ardacin mannosylaglycone, reference compound] | 12500
* CNC1C(=O)NC2C(=O)NC(C(=O)NC3C(=O)NC4C(=O)NC(C(=O)NC(C(=O)NCCN(C)C)c5cc(O)cc(O)c5-c5cc4ccc5O)C(O)c4cc(Cl)c(c(Cl)c4)Oc4cc3cc(c4O)Oc3ccc(cc3Cl)C2O)c2cc(cc(O)c2Cl)Oc2cc1ccc2O (stereo not shown) [Compound 2g] | 200
* CCCCCCCCCC(=O)NC1C(Oc2c3cc4cc2Oc2c(Cl)cc(cc2Cl)C(O)C2NC(=O)C(NC(=O)C4NC(=O)C4NC(=O)C(NC(=O)C(NC)c5ccc(O)c(c5)Oc5cc(O)c(Cl)c4c5)C(O)c4ccc(c(Cl)c4)O3)c3ccc(O)c(c3)-c3c(OC4OC(CO)C(O)C(O)C4O)cc(O)cc3C(C(=O)NN)NC2=O)OC(C(=O)NN)C(O)C1O (stereo not shown) [Compound 2k, Ardacin A dihydrazide] | 12500

The molecule identified as CNC1C(=O)NC2C(=O)NC(C(=O)NC3C(=O)NC4C(=O)NC(C(=O)NC(C(=O)NCCCCCCN)c5cc(O)cc(O)c5-c5cc4ccc5O)C(O)c4cc(Cl)c(c(Cl)c4)Oc4cc3cc(c4O)Oc3ccc(cc3Cl)C2O)c2cc(cc(O)c2Cl)Oc2cc1ccc2O (stereo not shown) [Compound 2h, Ardacin aglycone-(6-aminohexyl amide)] registered its minimum inhibitory concentration of antibiotic, Test Organism 6 at 100

The molecule identified as CNC1C(=O)NC2C(=O)NC(C(=O)NC3C(=O)NC4C(=O)NC(C(=O)NC(C(=O)NCCN)c5cc(O)cc(OC6OC(CO)C(O)C(O)C6O)c5-c5cc4ccc5O)C(O)c4cc(Cl)c(c(Cl)c4)Oc4cc3cc(c4O)Oc3ccc(cc3Cl)C2O)c2cc(cc(O)c2Cl)Oc2cc1ccc2O (stereo not shown) [Compound 2o] registered its minimum inhibitory concentration of antibiotic, Test Organism 6 at 400

The molecule identified as CNC1C(=O)NC2C(=O)NC(C(=O)NC3C(=O)NC4C(=O)NC(C(=O)NC(C(=O)NCCN)c5cc(O)cc(O)c5-c5cc4ccc5O)C(O)c4cc(Cl)c(c(Cl)c4)Oc4cc3cc(c4O)Oc3ccc(cc3Cl)C2O)c2cc(cc(O)c2Cl)Oc2cc1ccc2O (stereo not shown) [Compound 2e, Ardacin aglycone-(2-aminoethyl amide)] registered its minimum inhibitory concentration of antibiotic, Test Organism 6 at 100

* * *

PROTOCOL SUMMARY: pI (analytical data, Table 2)
Format: physicochemical
MEASURE NAME: pI
Output: the number by itself.

* CNC1C(=O)NC2C(=O)NC(C(=O)NC3C(=O)NC4C(=O)NC(C(=O)NC(C(N)=O)c5cc(O)cc(OC6OC(CO)C(O)C(O)C6O)c5-c5cc4ccc5O)C(O)c4cc(Cl)c(c(Cl)c4)Oc4cc3cc(c4O)Oc3ccc(cc3Cl)C2O)c2cc(cc(O)c2Cl)Oc2cc1ccc2O (centres unmarked) [Compound 2n, Ardacin mannosylaglycone amide] | 7.1

Then this molecule:
The molecule identified as CNC1C(=O)NC2C(=O)NC(C(=O)NC3C(=O)NC4C(=O)NC(C(=O)NC(C(=O)NCCN)c5cc(O)cc(OC6OC(CO)C(O)C(O)C6O)c5-c5cc4ccc5O)C(O)c4cc(Cl)c(c(Cl)c4)Oc4cc3cc(c4O)Oc3ccc(cc3Cl)C2O)c2cc(cc(O)c2Cl)Oc2cc1ccc2O (centres unmarked) [Compound 2o] registered its pI at 7.8
